# Tested on: Human tumor cells
# ASSAY EXPLANATION: Soft Agar Assay (anchorage-independent growth, colony count after MTT staining)
# Assay type: cell-based
# CONDITION: read-out: Soft Agar IC50
Provide the recorded IC50 for the entries that follow.

Reference set, count: 2
- CC(C)(C)OC(=O)N1CCN([C@H]2c3ccc(Cl)cc3CCc3cc(Br)cnc32)C[C@@H]1C(=O)N1CCCCC1CCn1ccnc1 (stereo partly drawn): 0.5 to 30 nM
- CC(C)(C)OC(=O)N1CCN(C2c3ccc(Cl)cc3CCc3cc(Br)cnc32)C[C@@H]1C(=O)N1CCCCC1CCn1ccnc1 (stereo partly drawn): 0.5 to 30 nM

Consider the additional molecule presented here.
Data request: Request the reported IC50 associated with CC(C)(C)OC(=O)N1CCN(C2c3ccc(Cl)cc3CCc3cc(Br)cnc32)C[C@@H]1C(=O)N1CCCCC1CCCn1ccnc1 (stereo partly drawn)
Data returned: 0.5 to 30 nM
